- Protocol Details: inhibitors of hydroxyurea-induced Chk1 phosphorylation, primary screen, imaging, HeLa, phospho-Chk1 antibody, percent positive cells (AID 1186)
- Run Parameters: hydroxyurea-induced phospho-Chk1 immunofluorescence imaging, higher = more signal
Note to self: class labels come from recorded z-score, ranges listed here: low group = under -0.2, middle group = from -0.2 up to 0.2, high group = 0.2 and over

1. CC(C)c1ccc(NN2C(C(O)c3ccc(B(O)O)cc3)C=CC3C(=O)N(c4ccccc4)C(=O)C32)cc1 (stereo not given)	low group
2. C[C@@]1([C@@H](NC(=O)c2ccc(-c3ccccc3)cc2)c2ccc(Cl)cc2)C[C@H]1C1CCCCC1	low group
3. C=C(/C(=C/C[C@H](OC(C)=O)c1ccc(CO)o1)c1cc(C(=O)OC)ccc1OC)C(C)C	low group
4. C=CCNC(=O)[C@@H]1[C@H]2C(=O)O[C@H](c3ccccc3)[C@H](c3ccccc3)N2[C@H](c2ccc(OCCO)cc2)[C@@]12C(=O)Nc1ccc(C#CCC(C(=O)OC)C(=O)OC)cc12	high group
5. COc1cc(C(O)C2C=CC3C(=O)NC(=O)C3N2Nc2ccccn2)cc(OC)c1OC (stereo not given)	high group
6. CCOC(=O)C[C@H]1[C@H](OC(=O)c2ccc(C(=O)c3ccccc3)cc2)[C@@H](NC(=O)c2ccccc2)c2cc(OCCCO)ccc2N1C(=O)Cc1ccc(OC)cc1	middle group
7. CN(C)CCCC[C@@H]1NC(=O)[C@@H]2C[C@H](C(=O)NCCCCCCN)[C@H](c3cccc(OCCO)c3)N2C1=O	low group
8. CCCC[C@@H]1C[C@H]1[C@@H](NC(=O)C(C)(C)C)c1ccc(C(F)(F)F)cc1	middle group
9. COC(=O)[C@H](Cc1ccccc1)N[C@@H](/C=C/C1CC1)[C@H](O)Cc1ccccc1	middle group
10. CC(C)NC(=O)[C@@]1(c2ccc([N+](=O)[O-])cc2)CC(=O)N(C2CCCCC2)[C@@H]1c1ccc(CO)cc1I	middle group
11. C[N+](C)(C)CCCC[C@@H]1NC(=O)[C@H]2C[C@@H](C(=O)NCCCCCCNC(=O)CS)[C@@H](c3cccc(OCCO)c3)N2C1=O	high group
12. COc1ccc([C@H]2OC[C@@H]3C[C@@H](Cc4ccccc4)C(=O)N32)cc1	high group
13. COC(=O)c1c(CC[C@@H](CO)NC(=O)NCCn2cc(C3(O)CCCC3)nn2)oc(C(C)=O)c1C(=O)OC	middle group
14. COCCCNC(=O)[C@@]1(C)c2ccccc2C(=O)N(C(C)C)[C@H]1c1ccc(CO)cc1	middle group
15. O=C1C2C=CC(C(O)c3cccc4ccccc34)N(Nc3ccccc3F)C2C(=O)N1c1ccccc1 (stereo not given)	high group
16. CCCC=C(CCC)[C@@H](NC(=O)c1cccs1)c1ccc(C(F)(F)F)cc1	high group
17. CCOC(=O)C[C@H]1[C@H](OC(=O)c2ccc(C(=O)c3ccccc3)cc2)[C@@H](NC(=O)c2ccccc2)c2cc(OCCCO)ccc2N1C(=O)c1ccc2ccccc2n1	middle group
18. O=C(NCCN1CCOCC1)[C@@H]1c2ccccc2C(=O)N(C2CCCCC2)[C@H]1c1ccc(CO)cc1	low group
19. CC1CC/C=C\[C@H]2OC34C=CCN(C(C)(C)C)C(=O)[C@H]3N(CCO)C(=O)[C@@H]4C2C(=O)O1 (stereo not given in full)	low group
20. C=CC[C@]1(C(=O)NCCCOC)N=C(c2ccc(OCCCO)cc2)O[C@H]1c1ccccc1CN=[N+]=[N-]	middle group
21. C=CCC(OC(C)=O)[C@@H]1[C@@H](N(Cc2cc3ccccc3o2)C(=O)c2cccc3ccccc23)c2cc(OCCCO)ccc2N1C(=O)c1ccc(-c2ccccc2)cc1 (stereo not given in full)	middle group
22. CCOC(=O)C1=C[C@@H](C(C)(C)C)N(S(=O)(=O)c2ccc(C)cc2)[C@H]1c1ccc(F)cc1	low group
23. O=C1C2C=CC(C(O)CCc3ccccc3)N(Nc3ccccc3F)C2C(=O)N1c1ccccc1 (stereo not given)	high group
24. COc1ccc(-c2cc3c(c(-c4ccc(Oc5ccccc5)cc4)n2)[Si](C(C)C)(C(C)C)OC3)cn1	low group
25. O=C1C2C=CC(C(O)Cc3ccccc3)N(n3cnnc3)C2C(=O)N1Cc1ccccc1 (stereo not given)	middle group
26. NCCCCCNC(=O)[C@@H]1C[C@@H]2C(=O)N[C@@H](Cc3ccccc3)C(=O)N2[C@@H]1c1ccc(O)cc1	high group
27. COCCOC(=O)N1C(=O)[C@@]2(c3cc(C#Cc4ccc(OC)cc4)ccc31)[C@H](c1ccc(O)cc1)N1[C@H](c3ccccc3)[C@H](c3ccccc3)OC(=O)[C@H]1[C@@H]2C(=O)N1CCc2cc(OC)c(OC)cc2C1	high group
28. COC(=O)[C@@]1(Cc2ccc(OC)cc2)[C@H]2c3cc(C(=O)N(C)C)n(CCc4ccccn4)c3C[C@H]2CN1C(=O)c1ccccc1	high group

Every entry's value here was drawn from PubChem BioAssay.
